assay: RP, Waters ACQUITY Premier BEH C18, 100 × 2.1 mm, 1.7 µm, 40 °C, 0.3 to 0.4 mL/min, estimated dead time 0.73 min; A: water + 0.1% formic acid; B: acetonitrile + 0.1% formic acid; gradient (min/%B) 0/0.5 0.1/0.5 10/80 10.1/99.5 12/0.5 12.1/0.5 14.5/0.5; conditions: stereoisomer not certain
endpoint: LC retention time (min)

Oc1ccc(C=Cc2cc(O)cc(O)c2)cc1 [RESVERATROL]; 5.3
NC(=O)[C@@H](N)Cc1c[nH]c2ccccc12 [L-TRYPTOPHANAMIDE]; 3.9
O=C(O)C=Cc1cnc[nH]1 [UROCANATE]; 1.39
Nc1nc2[nH]c(=O)cnc2c(=O)[nH]1 [ISOXANTHOPTERIN]; 1.02
O=C(O)c1ccc(O)cc1O [2,4-DIHYDROXYBENZOIC ACID]; 4
Nc1nc2c(ncn2C2CC(O)C(COP(=O)(O)O)O2)c(=O)[nH]1 (stereo not given) [DEOXYGUANOSINE-MONOPHOSPHATE]; 1.47
O=c1ccc2ccc3occc3c2o1 [ANGELICIN]; 6.41
CCC(CO)C(=O)O (stereo not given) [2-ETHYLHYDRACRYLIC ACID]; 3.81

[P] Cn1c(=O)[nH]c2ncn(C)c2c1=O [PARAXANTHINE]
[Q] Cn1c(=O)[nH]c(=O)c2c1[nH]c(=O)n2C [3,7-DIMETHYLURIC ACID]
## Task Pick one: P or Q . Which one has the lower reported LC retention time? Answer = label.
## Result Q
(Q: 1.28 min, P: 3.95 min)
